test system: H358 cells; test: Cell viability assay (CELLTITER-GLO), H358 cells; assay type: cell-based; settings: Table 4; 3 days
Measured parameter: Inhibition of H358 cells, IC50 (class)

O=C1CCC(N2Cc3c(cc(F)cc3C3CCN(CCCCCCCOc4cccc(F)c4-c4c(Cl)cc5c(N6CCN(C(=O)C7CCNC7)CC6)ncnc5c4F)CC3)C2=O)C(=O)N1 (stereo not drawn) : B′
CCC(=O)N1CCN(c2ncnc3c(F)c(-c4c(F)cccc4OCCCCCCCN4CCC(c5cc(F)cc6c5CN(C5CCC(=O)NC5=O)C6=O)CC4)c(Cl)cc23)[C@@H](C)C1 (stereo partly drawn) : B′
C=CC(=O)N1CCN(c2nc(OC[C@@H]3CCCN3C)nc3c(F)c(-c4c(F)cccc4OCCCCCCCN4CCC(c5cc(F)cc6c5CN(C5CCC(=O)NC5=O)C6=O)CC4)c(Cl)cc23)CC1 (stereo partly drawn) : A′
